The reported numbers originate from ChEMBL document CHEMBL4049413.

System name: Death-associated protein kinase 1 (Homo sapiens)
Sequence (P53355 whole entry): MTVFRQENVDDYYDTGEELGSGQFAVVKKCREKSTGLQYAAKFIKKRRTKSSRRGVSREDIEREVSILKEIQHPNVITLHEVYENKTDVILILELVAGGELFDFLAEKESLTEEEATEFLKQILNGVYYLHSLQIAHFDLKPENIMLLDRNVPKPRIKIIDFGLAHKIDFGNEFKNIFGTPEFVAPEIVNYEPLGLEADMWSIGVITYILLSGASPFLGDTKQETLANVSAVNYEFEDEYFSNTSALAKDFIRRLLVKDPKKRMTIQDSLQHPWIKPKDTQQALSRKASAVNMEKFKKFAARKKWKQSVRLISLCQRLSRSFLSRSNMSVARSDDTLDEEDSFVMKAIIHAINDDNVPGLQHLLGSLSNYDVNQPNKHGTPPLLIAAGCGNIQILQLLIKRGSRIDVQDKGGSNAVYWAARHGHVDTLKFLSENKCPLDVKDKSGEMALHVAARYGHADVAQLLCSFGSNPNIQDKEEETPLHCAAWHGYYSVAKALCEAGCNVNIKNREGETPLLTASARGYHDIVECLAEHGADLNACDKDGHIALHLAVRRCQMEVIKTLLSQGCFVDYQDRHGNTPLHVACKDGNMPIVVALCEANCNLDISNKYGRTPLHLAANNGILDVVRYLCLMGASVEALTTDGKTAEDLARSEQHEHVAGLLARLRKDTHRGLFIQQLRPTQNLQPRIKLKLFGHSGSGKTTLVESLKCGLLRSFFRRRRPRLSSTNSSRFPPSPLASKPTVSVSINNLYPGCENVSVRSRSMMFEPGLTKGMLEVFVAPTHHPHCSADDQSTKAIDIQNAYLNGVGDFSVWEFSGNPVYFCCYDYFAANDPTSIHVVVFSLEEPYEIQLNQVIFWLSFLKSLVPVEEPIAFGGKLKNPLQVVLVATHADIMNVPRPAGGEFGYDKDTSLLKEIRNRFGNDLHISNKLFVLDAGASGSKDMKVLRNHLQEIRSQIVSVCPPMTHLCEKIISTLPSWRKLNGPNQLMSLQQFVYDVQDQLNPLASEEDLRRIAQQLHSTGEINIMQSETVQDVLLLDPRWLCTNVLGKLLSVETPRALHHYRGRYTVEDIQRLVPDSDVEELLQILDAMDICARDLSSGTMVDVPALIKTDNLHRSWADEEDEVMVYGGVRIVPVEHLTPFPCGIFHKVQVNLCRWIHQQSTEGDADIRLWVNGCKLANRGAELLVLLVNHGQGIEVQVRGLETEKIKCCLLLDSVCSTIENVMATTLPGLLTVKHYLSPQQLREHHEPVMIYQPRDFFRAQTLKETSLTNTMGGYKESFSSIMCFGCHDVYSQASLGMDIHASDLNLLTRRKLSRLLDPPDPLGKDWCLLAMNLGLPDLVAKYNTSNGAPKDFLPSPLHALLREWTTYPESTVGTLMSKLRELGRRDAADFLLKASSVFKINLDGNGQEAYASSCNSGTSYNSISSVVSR
Procedure details: Activation of human DAPK1 using KKLNRTLSFAEPG as substrate in presence of [gamma-33P]-ATP
Measured metric: EC50

The compound O=C(COc1cccc2ccccc12)Nc1cccc(C(=O)O)c1 on Death-associated protein kinase 1 (Homo sapiens): EC50 was 39.5 µM

====

System name: Albumin (Bos taurus, UniProt P02769)
Sequence (P02769 whole entry): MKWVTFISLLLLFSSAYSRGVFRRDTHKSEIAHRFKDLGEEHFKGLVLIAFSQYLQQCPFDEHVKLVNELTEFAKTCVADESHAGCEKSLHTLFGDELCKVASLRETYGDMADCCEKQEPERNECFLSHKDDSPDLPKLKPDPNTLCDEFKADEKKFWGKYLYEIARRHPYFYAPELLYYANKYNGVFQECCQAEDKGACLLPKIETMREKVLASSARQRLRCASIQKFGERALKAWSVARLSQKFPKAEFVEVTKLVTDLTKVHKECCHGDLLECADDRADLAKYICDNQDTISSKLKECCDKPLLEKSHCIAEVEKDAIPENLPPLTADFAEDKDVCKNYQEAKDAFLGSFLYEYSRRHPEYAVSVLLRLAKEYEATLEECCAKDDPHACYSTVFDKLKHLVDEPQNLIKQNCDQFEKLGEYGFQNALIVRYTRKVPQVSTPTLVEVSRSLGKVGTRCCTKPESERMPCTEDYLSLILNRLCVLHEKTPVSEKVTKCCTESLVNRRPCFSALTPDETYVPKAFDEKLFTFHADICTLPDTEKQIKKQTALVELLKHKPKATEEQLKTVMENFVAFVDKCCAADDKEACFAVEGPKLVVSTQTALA
Procedure details: Binding affinity to bovine serum albumin by tryptophan quenching based HTS assay
Measured metric: IC50 (µM)
Express your answer in µM, writing the number without its unit.

Record O=C(COc1cccc2ccccc12)Nc1cccc(C(=O)O)c1 , field IC50: 23.3

====

System name: Serine/threonine-protein kinase pim-3 (Homo sapiens)
Measured metric: IC50 (µM)
Express your answer in µM, writing the number without its unit.

Record O=C(COc1cccc2ccccc12)Nc1cccc(C(=O)O)c1 , field IC50: 4.08
